- TGT: UniProt P04629
- Sequence (P04629 whole entry, the tested form may be a part): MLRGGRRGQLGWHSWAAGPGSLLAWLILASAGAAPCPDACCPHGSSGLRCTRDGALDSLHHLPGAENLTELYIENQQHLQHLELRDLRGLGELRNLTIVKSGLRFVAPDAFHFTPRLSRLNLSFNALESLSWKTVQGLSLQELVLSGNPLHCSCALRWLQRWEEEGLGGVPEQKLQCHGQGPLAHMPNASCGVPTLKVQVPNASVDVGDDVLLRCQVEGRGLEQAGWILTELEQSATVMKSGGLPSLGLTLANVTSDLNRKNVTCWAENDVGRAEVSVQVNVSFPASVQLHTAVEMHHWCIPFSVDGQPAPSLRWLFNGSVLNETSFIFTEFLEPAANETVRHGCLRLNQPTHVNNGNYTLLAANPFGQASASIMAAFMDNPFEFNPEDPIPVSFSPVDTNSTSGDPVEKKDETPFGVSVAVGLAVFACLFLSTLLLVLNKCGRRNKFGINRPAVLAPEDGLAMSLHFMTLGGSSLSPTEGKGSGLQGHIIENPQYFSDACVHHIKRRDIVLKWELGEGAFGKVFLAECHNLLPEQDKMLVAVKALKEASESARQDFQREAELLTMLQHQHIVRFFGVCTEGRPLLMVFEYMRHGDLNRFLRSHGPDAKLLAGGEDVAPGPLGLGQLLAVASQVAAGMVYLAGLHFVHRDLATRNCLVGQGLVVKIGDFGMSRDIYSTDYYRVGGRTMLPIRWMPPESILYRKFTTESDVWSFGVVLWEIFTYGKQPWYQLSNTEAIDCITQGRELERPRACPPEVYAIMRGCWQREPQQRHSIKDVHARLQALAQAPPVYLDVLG
- EXPERIMENT SUMMARY: Functional Activity Assay: TrkA functional activity was measured using a DiscoverX PathHunter assay. In this assay, U2OS cells express the human TrkA receptor as a fusion with the weakly complementing fragment of B-galactosidase, which DiscoverX calls “Prolink (PK)”; additionally, Shcl is fused with a larger fragment, which is called “Enzyme Acceptor (EA)”. Activation of the TrkA receptor, upon NGF addition, results in the kinase domain being phosphorylated, resulting in subsequent recruitment of Shcl-EA protein. That recruitment results in an active B-galactosidase enzyme that is detected by addition of a chemiluminescent substrate. The human p75NTR protein was also expressed as a co-receptor for NGF.All reagents were purchased from DiscoverX, except for the receptor agonists (NGF, BDNF, NT3) which were purchased from Peprotech. Cells were expanded and frozen into cryovials, and stored in the vapor phase of liquid nitrogen, and thawed immediately before use. Thawed cells were added to a 384-well plate at 7500 cells/well, and allowed to incubate overnight. Compound at various concentrations was added the following morning and allowed to incubate on cells for 1 h. Then, NGF was added at a concentration sufficient to elicit ˜80% of a maximal response and allowed to incubate for 3 h at ambient temperature.
MEASURE NAME: pIC50
In plain terms, pIC50 is the concentration in mol/L turned into minus its base-10 logarithm.

[in] Provide only the value of recorded pIC50 for Cc1ncc(NC(=O)c2cc(-c3ccn(C)n3)c(C(F)(F)F)cc2F)c(-c2ccccc2)n1
[out] 9.00
